Data origin, for the record: ChEMBL document CHEMBL1201862

# Test target: DNA dC->dU-editing enzyme APOBEC-3G (Homo sapiens)
# Assay type: functional
Activity calls are given as the source filed them.
Measured attribute: IC50

Below, 6 molecules whose answers are already recorded.
1) CCN1CCN(c2ccc(S(=O)(=O)N3CCOCC3)cc2NC(=O)/C=C/c2ccc([N+](=O)[O-])cc2)CC1 : 7.56 µM (active)
2) CC1(CC(=O)N/N=C/c2cc([N+](=O)[O-])c(O)cc2O)OCCO1 : 41 µM (active)
3) COc1ccc(N(CC(=O)N2CCCCCC2)S(=O)(=O)c2ccccc2[N+](=O)[O-])c(OC)c1 : 4.83 µM (active)
4) CC[n+]1ccc(/C=C/c2c[nH]c3ccccc23)cc1 : 12.3 µM (active)
5) O=C(/C=C/c1ccco1)OCC(=O)N1CCCCC1 : 35.9 µM (active)
6) CSc1ccccc1NC(=O)CN(C)CC(=O)c1[nH]c(C)c(C(C)=O)c1C : 18.9 µM (active)

Attention now shifts to the item below.
Hello, please tell me recorded IC50 for this one: CC(C)(C)C1CCC(OC(=O)C[N+]2(C)CCCC2)CC1 (configuration not stated) 3.36 µM (active)

###

# EC50 values compiled below
# Test system: Streptococcus
# Assay text: GAS UMAA2166 growth inhibition – luminescence, BacTiterGlo, counter-screen for streptokinase expression inhibitor project, dose response (AID 1915);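 also: potency for reduction of bacterial viability or growth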
# Assay type: functional, organism-based
Calls of active or inactive are those of the source.

Hello, please tell me recorded EC50 for this one: CC(=O)O[C@H]1CC[C@]2(C)[C@H]3CC=C4[C@@H]5[C@@H](C)[C@H](C)CC[C@]5(C(=O)O)CC[C@@]4(C)[C@]3(C)CC[C@H]2C1(C)C [O-ACETYLURSOLIC ACID] 3.26 µM (active)

Hello, please tell me recorded EC50 for this one: COc1ccc(-c2nnc(SC(C(=O)c3c[nH]c4ccccc34)c3ccccc3)n2N)cc1OC (stereo not drawn) 102 µM (active)

Hello, please tell me recorded EC50 for this one: "Cc1ccc(-n2c(O)cc(=O)nc2SCC(=O)Nc2ccc3c4c(cccc24)CC3)cc1" > 150 µM (not active)

###

# IC50 values compiled below
# Test target: UniProt:P04406
# Sequence (P04406 whole entry): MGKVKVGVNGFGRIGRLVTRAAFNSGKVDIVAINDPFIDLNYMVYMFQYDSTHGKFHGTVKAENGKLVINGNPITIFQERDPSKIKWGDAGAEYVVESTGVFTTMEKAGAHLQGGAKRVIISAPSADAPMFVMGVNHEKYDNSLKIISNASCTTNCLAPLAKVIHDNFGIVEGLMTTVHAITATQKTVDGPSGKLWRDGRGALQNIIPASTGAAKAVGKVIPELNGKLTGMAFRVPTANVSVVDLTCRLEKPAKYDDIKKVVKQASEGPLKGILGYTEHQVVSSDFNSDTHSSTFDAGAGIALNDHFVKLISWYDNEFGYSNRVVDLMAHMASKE

1. Cc1ccc(C)n1C(Cc1ccccc1)C(=O)O (stereo unspecified) : > 100 µM (not active)
2. COc1cccc(N2C(=O)C(Cl)=C(N3CCOCC3)C2=O)c1 : > 50 µM (inconclusive)

Give IC50 for this entry on UniProt:P04406: "Cc1ccc(N2NC(=O)/C(=C/c3c(C)c(C#N)c4nc5ccccc5n4c3O)C2=O)cc1C" > 100 µM (not active)

###

# Test target: Bcl-2-like protein 10 (Homo sapiens)
# Sequence (Q9HD36 whole entry): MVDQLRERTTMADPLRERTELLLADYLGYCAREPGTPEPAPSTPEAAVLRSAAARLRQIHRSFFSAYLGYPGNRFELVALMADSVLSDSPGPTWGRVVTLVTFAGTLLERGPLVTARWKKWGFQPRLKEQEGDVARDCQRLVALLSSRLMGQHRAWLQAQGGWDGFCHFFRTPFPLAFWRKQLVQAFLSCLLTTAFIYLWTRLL
# Assay text: Bcl-B/TR3 peptide binding disruption – biochemical, fluorescence polarization, FITC-TR3 peptide, selectivity assay for Bfl-1 inhibitor project, primary screen (AID 748);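 also: fluorescence polarization from a fluorescein-labelled TR3 peptide binding purified Bcl-B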
Activity calls are given as the source filed them.
Lab note: assign the record to one of YES for active, NO for inactive

1. C[C@@H](C(=O)Nc1nc(-c2ccccn2)cs1)N1C(=O)C2CCCCC2C1=O (some centres undefined) : NO
2. Cc1ccc(C)n1C(Cc1ccccc1)C(=O)O (centres undefined) : NO
3. Cc1ccccc1N1C(=O)c2sc3nc4c(c(=O)n3c2C1=O)CCC4 : NO

Okay, next one:
Could you check what this test reported for "O=C(CSc1nnc(-c2ccco2)c(-c2ccco2)n1)Nc1ccccc1" ? YES

###

# EC50 values compiled below
# Assay text: alpha-synuclein stem-loop luciferase translation blockers – H4 neuroglioma cells, luminescence, confirmation (AID 1988)
# Format: functional, cell-based
Calls of active or inactive are those of the source.

1. Cc1ccc(OCCn2c(NC(=O)c3ccco3)nc3ccccc32)cc1 : 10.3 µM (active)
2. O=C(Nc1ccc(-c2nc3ccccc3s2)cc1)C1=COCCO1 : 2.95 µM (active)
3. C=CCn1c(S)nnc1-c1cccn(Cc2ccccc2)c1=O : > 120 µM (not active)

Hello, please tell me recorded EC50 for this one: "COc1ccc(C(=O)c2c(C(F)(F)F)oc3c2C(=O)c2ccccc2C3=O)cc1OC" 8.35 µM (active)

Hello, please tell me recorded EC50 for this one: "CCCCOc1ccc(Br)cc1/C(C)=N/NC1=NCCN1" 3.86 µM (active)

###

# IC50 values compiled below
# Test target: Estrogen receptor (Homo sapiens, UniProt P03372);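 also: potency for inhibiting coactivator peptide recruitment to the receptor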
# Sequence (P03372 whole entry): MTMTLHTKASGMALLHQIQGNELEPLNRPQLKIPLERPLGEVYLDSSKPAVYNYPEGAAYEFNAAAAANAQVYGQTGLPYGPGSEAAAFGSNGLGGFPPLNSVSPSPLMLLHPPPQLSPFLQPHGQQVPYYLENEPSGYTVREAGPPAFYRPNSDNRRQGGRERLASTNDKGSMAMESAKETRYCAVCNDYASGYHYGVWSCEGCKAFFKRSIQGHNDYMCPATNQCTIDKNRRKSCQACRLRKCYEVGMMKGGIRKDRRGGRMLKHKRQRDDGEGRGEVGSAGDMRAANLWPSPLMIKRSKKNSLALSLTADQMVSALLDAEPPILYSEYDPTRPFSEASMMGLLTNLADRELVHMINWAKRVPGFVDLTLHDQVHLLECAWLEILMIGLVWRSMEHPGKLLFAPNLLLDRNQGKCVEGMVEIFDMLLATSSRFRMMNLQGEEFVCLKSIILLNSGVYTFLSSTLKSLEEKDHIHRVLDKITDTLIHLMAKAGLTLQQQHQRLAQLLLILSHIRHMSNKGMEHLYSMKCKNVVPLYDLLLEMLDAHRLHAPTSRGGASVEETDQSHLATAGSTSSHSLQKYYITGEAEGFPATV
The source made the active and inactive calls.

1) O=C(O)C1Nc2c(C(=O)N3CCOCC3)cccc2C2C=CCC12 (centres undefined) : 15.9 µM (active)

Give IC50 for this entry on Estrogen receptor (Homo sapiens, UniProt P03372): "O=C(Nc1nc2ccccc2s1)c1cc2c(s1)-c1ccccc1OC2" > 50 µM (not active)

Give IC50 for this entry on Estrogen receptor (Homo sapiens, UniProt P03372): "Cc1cc(C(=O)OCC(=O)c2ccc(Br)s2)no1" 36.2 µM (not active)

Give IC50 for this entry on Estrogen receptor (Homo sapiens, UniProt P03372): "COc1cc(-c2nnc(-c3ccc(S(=O)(=O)c4ccccc4)cc3)o2)cc(OC)c1OC" > 50 µM (not active)

###

# Test target: UniProt P11940
# Sequence (P11940 whole entry): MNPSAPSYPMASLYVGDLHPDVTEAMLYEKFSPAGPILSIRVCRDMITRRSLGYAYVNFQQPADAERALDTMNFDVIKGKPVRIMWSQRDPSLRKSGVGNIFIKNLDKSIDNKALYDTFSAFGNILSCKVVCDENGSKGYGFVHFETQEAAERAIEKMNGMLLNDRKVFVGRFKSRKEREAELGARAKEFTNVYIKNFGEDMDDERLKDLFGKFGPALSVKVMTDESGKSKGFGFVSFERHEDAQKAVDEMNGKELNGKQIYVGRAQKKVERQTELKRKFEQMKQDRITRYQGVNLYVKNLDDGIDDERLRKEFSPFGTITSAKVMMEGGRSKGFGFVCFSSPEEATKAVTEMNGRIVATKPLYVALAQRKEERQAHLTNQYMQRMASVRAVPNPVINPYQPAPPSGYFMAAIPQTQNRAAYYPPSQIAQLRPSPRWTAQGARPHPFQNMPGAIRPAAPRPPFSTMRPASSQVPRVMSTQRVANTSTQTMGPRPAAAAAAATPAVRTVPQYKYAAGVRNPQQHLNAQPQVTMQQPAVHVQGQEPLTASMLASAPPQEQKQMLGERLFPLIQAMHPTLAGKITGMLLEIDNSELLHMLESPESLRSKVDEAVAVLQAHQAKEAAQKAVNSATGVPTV
# Assay text: MLLE binding blockers, Cy5 peptide tracer – biochemical, fluorescence polarization, Cy5-PAM2 peptide, secondary, miRNA deadenylation inhibitor project, dose response (AID 602260)
# Format: functional
# Condition description: read-out: IC50_Mean
Activity calls are given as the source filed them.
# IC50 values compiled below

1) COc1cccc(/C=N/NC(=O)c2ccncc2)c1OC(=O)c1ccc(Br)cc1 : > 66 µM (inactive)
2) O=C(CCN1CCOCC1)NNC(=S)NC(=O)c1ccccc1 : > 66 µM (inactive)
3) N=c1n(CCN2CCCC2)c2ccccc2n1CC(O)c1ccco1 (stereo not given) : > 66 µM (inactive)
4) CCCc1nc2c(C)cc(Br)cn2c1Cc1ccsc1 : 35.7 µM (inactive)

Attention now shifts to the item below.
Give IC50 for this entry on UniProt P11940: "CCCNC(=O)NCCc1c(C)[nH]c2ccccc12" > 66 µM (inactive)

###

# Test target: DNA dC->dU-editing enzyme APOBEC-3G (Homo sapiens, UniProt Q9HC16)
# Sequence (Q9HC16 whole entry): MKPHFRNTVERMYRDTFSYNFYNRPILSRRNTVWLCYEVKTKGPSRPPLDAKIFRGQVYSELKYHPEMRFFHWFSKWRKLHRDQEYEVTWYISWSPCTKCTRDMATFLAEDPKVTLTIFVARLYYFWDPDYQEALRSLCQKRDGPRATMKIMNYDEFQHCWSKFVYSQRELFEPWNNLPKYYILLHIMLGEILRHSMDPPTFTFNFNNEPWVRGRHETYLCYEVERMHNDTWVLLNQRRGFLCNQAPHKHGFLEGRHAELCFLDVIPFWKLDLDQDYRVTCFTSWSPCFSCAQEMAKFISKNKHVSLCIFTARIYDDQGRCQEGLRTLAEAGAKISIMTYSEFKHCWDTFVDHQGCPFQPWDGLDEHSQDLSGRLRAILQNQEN
# Assay text: Dose Response confirmation of small molecule APOBEC3G DNA Deaminase Inhibitors via a fluorescence-based single-stranded DNA deaminase assay. [Related pubchem assays (depositor defined):AID493012, AID493028]
# Assay type: functional
Activity calls are given as the source filed them.
# IC50 values compiled below

Below, 8 compounds whose answers are already recorded.
1. CCCNC(=O)Cn1sc2nc(C)cc(C)c2c1=O : 5.41 µM (active)
2. CNc1nnc(S)s1 : 17.6 µM (active)
3. COC(=O)c1ccc(CSc2nnc(S)s2)o1 : 5.99 µM (active)
4. Sc1nnc(-c2ccccn2)n1/N=C/c1c(Cl)cccc1Cl : 4.67 µM (active)
5. CCCCCCn1c(SCC(=O)OC)nc2c1c(=O)[nH]c(=O)n2C : 51.6 µM (active)
6. CC(C)Cn1c(S)nnc1-c1cccc(S(=O)(=O)N2CCOCC2)c1 : 5.37 µM (active)
7. CC(=O)N(C1=C(Cl)C(=O)c2ccccc2C1=O)c1ccc(C(=O)O)cc1 : 8.03 µM (active)
8. C=CCn1c(-c2cc(OC)cc(OC)c2)n[nH]c1=S : 8.23 µM (active)

Give IC50 for this entry on DNA dC->dU-editing enzyme APOBEC-3G (Homo sapiens, UniProt Q9HC16): "CCC(CC)c1nnc(NC(=O)COc2ccc3c(c2)OCO3)s1" 53.2 µM (active)

###

# EC50 values compiled below
# Test target: RNA-binding protein pos-1 (Caenorhabditis elegans)
# Sequence (G5EF15 whole entry, the tested form may be a part): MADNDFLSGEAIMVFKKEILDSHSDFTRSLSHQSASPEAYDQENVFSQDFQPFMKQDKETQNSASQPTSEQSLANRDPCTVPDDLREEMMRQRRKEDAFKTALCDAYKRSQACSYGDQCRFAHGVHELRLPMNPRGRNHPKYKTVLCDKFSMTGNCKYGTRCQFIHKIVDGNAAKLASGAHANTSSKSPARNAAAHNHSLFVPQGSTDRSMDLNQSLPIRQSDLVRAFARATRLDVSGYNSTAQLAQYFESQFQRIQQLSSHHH
# Assay text: disruptors of C. elegans POS-1 RNA interaction – biochemical, fluorescence polarization, dose response (AID 1964);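 also: purified POS-1 fused to maltose binding protein made in E. coli; potency of compounds blocking POS-1 binding to fluorescent RNA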
The source made the active and inactive calls.

Below, 4 molecules whose answers are already recorded.
1) COc1ccc(CC(=O)NNC2=Nc3cccc4cccc2c34)cc1 : 119 µM (inconclusive)
2) O=C1C=C(O)c2c(O)cc(O)c(O)c2C1=O : 1.07 µM (inconclusive)
3) Cc1ccc(S(=O)(=O)N(CCCN2CCCC2=O)Cc2cc3c(C)ccc(C)c3[nH]c2=O)cc1 : > 300 µM (not active)
4) O=C(O)C1Nc2c(C(=O)N3CCOCC3)cccc2C2C=CCC12 (stereo not given) : 45.1 µM (active)

Hello, please tell me recorded EC50 for this one: "COc1ccc(NC(=O)CN2CCC(NC(=O)C3CCCCC3)CC2)c([N+](=O)[O-])c1" 67.9 µM (active)

###

# GI50 values compiled below
# Test system: SN12K1
# Assay text: cells
# Format: functional
# Condition description: Homo sapiens
Calls of active or inactive are those of the source.

Below, 3 molecules whose answers are already recorded.
1. COc1cccc2c1C(=O)c1c(O)c3c(c(O)c1C2=O)C[C@@](O)(C(=O)CO)C[C@@H]3OC1CC(N2CCOCC2)C(O)C(C)O1 (some centres undefined) : 3.66 nM (active)
2. Cc1ccc2cc3cccc(C(=O)NCCN(C)C)c3nc2c1 : 426 nM (active)
3. CC(=O)OC1CC2(O)C(CCC3(C)C(c4ccc(=O)oc4)CCC32O)C2(C)C1=CC(O)C1OC12 (centres undefined) : 42.4 nM (active)

Attention now shifts to the item below.
Give GI50 for this entry on SN12K1: "CN(C)CCNC(=O)c1cccc2ccc(-c3ccc(O)cc3)nc12" 637 nM (active)
